Biological target: FGF2 in recombinant human FGFR1/FGF2 complex (Homo sapiens)
Construct: made in house; host or cells: Escherichia coli BL21 (DE3) Star
Assay: Thermal shift assay (TSA), ΔTm of FGF2 peak
Type: binding
Conditions: 10 μM compound; read-out: ΔTm (° C.) −FGF2
Hi! Could you tag entries with ΔTm at 10 µM below -0.5 °C as t, and those at or above as f? Much appreciated.

> print(dat)
                                   compound  class.assignment
1  CCN(CC)c1ccc(/C=N/NC(=O)C2CCN(CCO)CC2)cc1 [Compound 13oh]                 f
2  CCN(CC)c1ccc(/C=N/Nc2ccc(C#N)cc2)cc1 [Compound 15od]                 t
3   O=C(c1ccccc1)c1cccc(F)c1 [Compound 9af]                 t
4  CCN(CC)c1ccc(C(=O)c2ccccc2)cc1 [Compound 9oa]                 f

###

Molecular target: FGF2 in recombinant human FGFR1/FGF2 complex (Homo sapiens)
Construct: made in house; host or cells: Escherichia coli BL21 (DE3) Star
Test: Thermal shift assay (TSA), ΔTm of FGF2 peak
Type: binding
Conditions: 25 μM compound; read-out: ΔTm (° C.) −FGF2
# ΔTm at 25 µM annotations
reported metric: ΔTm at 25 µM (°C)

> print(dat)
                                   molecule  reported.metric  experimental.result
1  CCN(CC)c1ccc(/C=N/NC(=O)C2CCOCC2)cc1 [Compound 13ob]     ΔTm at 25 µM                 -2.7
2  CCN(CC)c1ccc(/C=N/c2ccccc2)cc1 [Compound 4on]     ΔTm at 25 µM                 -0.5
3  CCN(CC)c1ccc(/C=N/Cc2ccccc2)cc1 [Compound 4ow]     ΔTm at 25 µM                   -2
4  CCN(CC)c1ccc(/C=N/N(c2ccccc2)c2ccccc2)cc1 [Compound 15ob]     ΔTm at 25 µM                   -1

###

Biological target: FGFR1 in recombinant human FGFR1/FGF2 complex (Homo sapiens)
Construct: made in house; host or cells: Escherichia coli BL21 (DE3) Star
Sequence (P11362 142-365 limits assumed): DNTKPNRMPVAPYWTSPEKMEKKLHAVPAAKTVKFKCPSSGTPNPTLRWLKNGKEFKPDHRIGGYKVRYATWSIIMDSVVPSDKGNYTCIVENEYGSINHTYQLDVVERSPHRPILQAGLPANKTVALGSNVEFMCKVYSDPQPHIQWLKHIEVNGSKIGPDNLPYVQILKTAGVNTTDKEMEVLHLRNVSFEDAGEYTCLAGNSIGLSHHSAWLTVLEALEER
Sequence (P09038 156-288 partner limits assumed): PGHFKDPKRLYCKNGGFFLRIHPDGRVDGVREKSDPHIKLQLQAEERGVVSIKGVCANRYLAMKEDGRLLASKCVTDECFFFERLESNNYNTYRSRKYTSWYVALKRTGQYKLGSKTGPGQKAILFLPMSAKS
Assay: Thermal shift assay (TSA), ΔTm of FGFR1 peak
Format: binding
Settings: 25 μM compound; read-out: ΔTm (° C.) −FGFR1
reported metric: ΔTm at 25 µM (°C)

> print(dat)
                                   molecule  unit.symbol  experimental.result
1           CCN(CC)c1ccc(/C=N/Cc2ccccc2)cc1           °C                    4
2  CCN(CC)c1ccc(/C=N/N(c2ccccc2)c2ccccc2)cc1 [Compound 15ob]           °C                    0
3            CCN(CC)c1ccc(/C=N/c2ccccc2)cc1           °C                  1.5
4  CCN(CC)c1ccc(/C=N/NC(=O)C2CCOCC2)cc1 [Compound 13ob]           °C                  1.5

###

Target: FGF2 in recombinant human FGFR1/FGF2 complex (Homo sapiens, UniProt P09038)
Construct: made in house; host or cells: Escherichia coli BL21 (DE3) Star
Sequence (P09038 156-288 limits assumed): as the sequence (P09038 156-288 partner limits assumed) above
Sequence (P11362 142-365 partner limits assumed): as the sequence (P11362 142-365 limits assumed) above
Test: Thermal shift assay (TSA), ΔTm of FGF2 peak
Assay type: binding
Details: 50 μM compound
// reported ΔTm at 50 µM per item
reported metric: ΔTm at 50 µM (°C)

> print(dat)
                                   compound  reported.metric  experimental.result
1  O=Cc1cccc(F)c1 [Compound 1f, 3-fluorobenzaldehyde]     ΔTm at 50 µM                 -0.4
2  CCN(CC)c1ccc(/C=N/NC(=O)CN(C)C)cc1 [Compound 13oa]     ΔTm at 50 µM                 -2.1
3  CCN(CC)c1ccc(C2N[C@@H](C(=O)O)C(C)(C)S2)cc1 (stereo partly shown) [Compound 11o]     ΔTm at 50 µM                 -4.2
4  CCN(CC)c1ccc(/C=N/c2ccc(C(F)(F)F)cc2)cc1 [Compound 4oy]     ΔTm at 50 µM                 -4.5
